Value source: patent EP3057950B1

- tested.target: wild type human RORγt ligand binding domain (RORγt LBD) (Homo sapiens, UniProt P51449)
- Construct: His-tag (N); TurboTEV protease cleavage site (ENLYFQG) (N)
- Sequence (P51449 269-508 limits assumed): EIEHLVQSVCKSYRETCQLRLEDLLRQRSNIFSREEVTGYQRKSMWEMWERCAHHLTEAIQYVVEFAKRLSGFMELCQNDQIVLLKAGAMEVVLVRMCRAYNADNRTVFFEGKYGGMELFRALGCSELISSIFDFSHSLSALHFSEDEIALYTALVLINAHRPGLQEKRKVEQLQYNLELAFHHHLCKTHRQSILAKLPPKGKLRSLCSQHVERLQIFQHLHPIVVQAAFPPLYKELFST
- experiment.description: RORγt ThermoFluor® Assay (thermal shift, binding affinity)
- measurement.conditions: pH 7.0, estimated from concentration response curves
pKd: −log10 of the molar value.
Use Fulfilled when the recorded pKd is no lower than 7; use Not fulfilled when it is lower.

Look over these answered cases.
INSERT INTO assay_data (molecule, classification) VALUES
  ('Cn1cncc1C(O)(c1ccc(Cl)cc1)c1ccc2nc(OCCN3CC3)c(-c3ccccc3)c(Cl)c2c1 (centres unmarked)', 'Not fulfilled'),
  ('CNCCN(C)c1nc2ccc(C(O)(c3ccncc3)c3cncn3C)cc2c(Cl)c1-c1ccccc1 (centres unmarked)', 'Not fulfilled'),
  ('Cc1ncc(C(O)(c2ccc3nc(Cl)c(-c4ccccc4)c(Cl)c3c2)c2cnnn2C)n1C (centres unmarked)', 'Fulfilled'),
  ('Cn1cncc1C(O)(c1ccc2nc(C#N)c(-c3ccccc3)c(C#N)c2c1)c1ccccn1 (single isomer, unassigned) [Example 18b]', 'Not fulfilled'),
  ('COc1nc2c(C)cc(C(O)(c3ccc(C(F)(F)F)nc3)c3cncn3C)cc2c(Cl)c1-c1ccc(OC(F)(F)F)cc1 (centres unmarked)', 'Fulfilled'),
  ('COCCOc1nc2ccc(C(O)(c3ccc(Cl)cc3)c3cncn3C)cc2c(Cl)c1-c1ccccc1 (centres unmarked)', 'Not fulfilled'),
  ('Cn1cncc1C(O)(c1ccc(Cl)cc1)c1ccc2nc(OCC(F)(F)F)c(-c3ccccc3)c(Cl)c2c1 (centres unmarked)', 'Not fulfilled'),
  ('COc1c(-c2ccccc2)c(Cl)nc2ccc(C(O)(c3sc(C)nc3C)c3cncn3C)cc12 (centres unmarked)', 'Fulfilled');

query: Is pKd for CN1CCC(C(O)(c2cccnc2)c2ccc3nc(Cl)c(-c4ccccc4)c(Cl)c3c2)CC1 (centres unmarked) at or above 7?
result: Not fulfilled

query: Is pKd for Cn1cncc1C(O)(c1ccc2nc(C(F)(F)F)c(-c3ccccc3)c(Cl)c2c1)c1ccccn1 (centres unmarked) at or above 7?
result: Not fulfilled

query: Is pKd for COc1nc2ccc(C(O)(c3cnnn3C)c3cnc(C)n3C)cc2c(Cl)c1-c1ccccc1 (single isomer, unassigned) [Example 41b] at or above 7?
result: Fulfilled

query: Is pKd for CC(=O)N1CCC(C(O)(c2cccnc2)c2ccc3nc(C(F)(F)F)c(-c4ccccc4)c(Cl)c3c2)CC1 (centres unmarked) at or above 7?
result: Fulfilled

query: Is pKd for OC(c1cccc(Cl)c1)(c1ccnc(C(F)(F)F)c1)c1ccc2nc(Cl)c(-c3ccccc3)c(Cl)c2c1 (centres unmarked) at or above 7?
result: Not fulfilled

query: Is pKd for COc1nc2ccc(C(O)(c3ccc(C(F)(F)F)nc3)c3cncn3C)cc2c(Cl)c1-c1ccc(Cl)s1 (centres unmarked) [Example 14a] at or above 7?
result: Fulfilled

query: Is pKd for Cc1nc(C)c(C(O)(c2ccc(Cl)cc2)c2ccc3nc(Cl)c(-c4ccccc4)c(Cl)c3c2)s1 (centres unmarked) at or above 7?
result: Not fulfilled

query: Is pKd for Cn1cncc1C(O)(c1ccc(Cl)cc1)c1ccc2nc(Cl)c(-c3cccnc3)c(Cl)c2c1 (centres unmarked) at or above 7?
result: Not fulfilled

query: Is pKd for COc1ncc(-c2c(OC)nc3ccc(C(O)(c4ccc(C(F)(F)F)nc4)c4cncn4C)cc3c2Cl)cn1 (centres unmarked) at or above 7?
result: Fulfilled
